B1: Azoarcus group I ribozyme (parent)
chain: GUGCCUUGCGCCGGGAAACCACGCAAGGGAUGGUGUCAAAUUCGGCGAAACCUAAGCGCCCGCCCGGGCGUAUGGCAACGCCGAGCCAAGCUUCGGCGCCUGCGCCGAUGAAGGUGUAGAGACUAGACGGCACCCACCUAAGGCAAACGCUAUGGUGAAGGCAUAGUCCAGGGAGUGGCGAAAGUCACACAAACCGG

Variants of: B1
assay: reverse-splicing fitness (ratio to wild type); higher = more active; in vitro selection; Mg2+ level not given
# Lookup of reported reverse-splicing fitness keyed by entry
attribute.measured: reverse-splicing fitness

[[record]]
variant_label = "C82A A111G A120U C150A C169U"
recorded_number = 0.00375

[[record]]
variant_label = "C82G A111G A120C C150G C169G U176G"
recorded_number = 0.00647

[[record]]
variant_label = "C82A A111G A120U A145G C150G U176A"
recorded_number = 0.00592

[[record]]
variant_label = "C82A A120C C150A"
recorded_number = 0.0224

[[record]]
variant_label = "C82G A111G A120C A145G C150A C169U U176G"
recorded_number = 0.00817

[[record]]
variant_label = "C82G A120U A145U C150G C169U U176G"
recorded_number = 0.00234

[[record]]
variant_label = "C82U A111C A145G"
recorded_number = 0.266

[[record]]
variant_label = "C82A A111G A120U A145G C169G"
recorded_number = 0.00402

[[record]]
variant_label = "C82G A120U A145U C150U C169U"
recorded_number = 0.00488

[[record]]
variant_label = "C82U A145G C150A C169U U176A"
recorded_number = 0.0137

[[record]]
variant_label = "C82G A111U A120U C150A C169A U176A"
recorded_number = 0.00677

[[record]]
variant_label = "A111G C150G C169U U176C"
recorded_number = 0.0163

[[record]]
variant_label = "C82A A111C A120G A145C C150U C169U U176A"
recorded_number = 0.0143

[[record]]
variant_label = "C82G A111U A120G A145G C150G C169A U176G"
recorded_number = 0.00831

[[record]]
variant_label = "C82A A111U A120G C150U C169G U176G"
recorded_number = 0.00517

[[record]]
variant_label = "A145C C150U C169G U176C"
recorded_number = 0.0444

[[record]]
variant_label = "C82G A111U A120G A145U U176A"
recorded_number = 0.0138

[[record]]
variant_label = "C82A A111C A120C A145G C150A"
recorded_number = 0.0108

[[record]]
variant_label = "A111C A145C C150A C169A U176A"
recorded_number = 0.0117

[[record]]
variant_label = "A111C A120G A145C C169A U176C"
recorded_number = 0.0169

[[record]]
variant_label = "C82G A111G A145G"
recorded_number = 0.431

[[record]]
variant_label = "C82U A120U A145C C169A U176C"
recorded_number = 0.0016

